Data provenance is ChEMBL document CHEMBL4308829.

Listed below: %max values for each entry.
Molecular target: Neuronal acetylcholine receptor subunit alpha-7 (Homo sapiens)
Assay: Positive allosteric modulation of human alpha7 nAChR expressed in Xenopus laevis oocytes assessed as increase in acetylcholine-induced channel current at 10 uM at -90 mV holding potential preincubated for 2 mins followed by co-application with acetylcholine for 10 secs by two-electrode voltage clamp method relative to control
Assay type: cell-based

Observe how each entry below is paired with its result.
{"columns": ["STRUCTURE SMILES STRING", "ASSAY TARGET", "%max"],
 "data": [
  ["Cc1cccc(Cl)c1-n1cnc2nc(Nc3cc(Cl)ncn3)sc2c1=O", "Neuronal acetylcholine receptor subunit alpha-7 (Homo sapiens)", "200%"],
  ["O=c1c2sc(SCc3ccccc3)nc2ncn1-c1ccc(Cl)cc1", "Neuronal acetylcholine receptor subunit alpha-7 (Homo sapiens)", "104%"],
  ["Cc1ccc(Nc2nc3ncn(-c4c(C)cccc4Cl)c(=O)c3s2)cc1F", "Neuronal acetylcholine receptor subunit alpha-7 (Homo sapiens)", "387%"],
  ["Cc1cccc(Cl)c1-n1cnc2nc(SCCc3ccccc3)sc2c1=O", "Neuronal acetylcholine receptor subunit alpha-7 (Homo sapiens)", "112%"],
  ["Cc1cccc(Cl)c1-n1cnc2nc(SCc3cccc(F)c3)sc2c1=O", "Neuronal acetylcholine receptor subunit alpha-7 (Homo sapiens)", "1140%"],
  ["Cc1ccccc1Nc1nc2ncn(-c3c(C)cccc3Cl)c(=O)c2s1", "Neuronal acetylcholine receptor subunit alpha-7 (Homo sapiens)", "300%"],
  ["Cc1cccc(Cl)c1-n1cnc2nc(SCCCc3ccccc3)sc2c1=O", "Neuronal acetylcholine receptor subunit alpha-7 (Homo sapiens)", "174%"],
  ["Cc1cccc(Cl)c1-n1cnc2nc(Nc3ccc(F)cc3)sc2c1=O", "Neuronal acetylcholine receptor subunit alpha-7 (Homo sapiens)", "250%"]
]}

Challenge: # get_value(readout='%max', item= O=c1c2sc(SCc3ccccc3)nc2ncn1-c1cccc(F)c1 )
Response given: 119%

Challenge: Next compound up: Cc1ccc(Nc2nc3ncn(-c4c(C)cccc4Cl)c(=O)c3s2)cc1
Response given: 1620%

Challenge: Same for Cc1cccc(Cl)c1-n1cnc2nc(Nc3ccncn3)sc2c1=O
Response given: 101%

Challenge: // query: Cc1ccc(S(=O)(=O)Nc2nc3ncn(-c4c(C)cccc4Cl)c(=O)c3s2)cc1
Response given: 97%

Challenge: Ok, now Cc1ccc(CNc2nc3ncn(-c4c(C)cccc4Cl)c(=O)c3s2)cc1
Response given: 111%

Challenge: Next entry: Cc1cccc(Cl)c1-n1cnc2nc(Nc3cccc(F)c3)sc2c1=O
Response given: 450%

Challenge: Try the compound Cc1ccc(Nc2nc3ncn(-c4c(C)cccc4Cl)c(=O)c3s2)cc1C
Response given: 650%

Challenge: Further, for O=c1c2sc(SCc3ccccc3)nc2ncn1-c1ccccc1F ?
Response given: 127%

Challenge: For Cc1cccc(Cl)c1-n1cnc2nc(Nc3ccc(Br)cc3)sc2c1=O then?
Response given: 150%

Challenge: Moving on to the next compound: CCc1ccc(Nc2nc3ncn(-c4c(C)cccc4Cl)c(=O)c3s2)cc1
Response given: 250%

Challenge: Do the same for Cc1cccc(Cl)c1-n1cnc2nc(SCc3ccc(Cl)cc3)sc2c1=O please
Response given: 444%

Challenge: And Cc1ccccc1-n1cnc2nc(SCc3ccccc3)sc2c1=O ?
Response given: 171%

Challenge: Also need Cc1cccc(Cl)c1-n1cnc2nc(SCc3ccc(Br)cc3)sc2c1=O , thanks.
Response given: 320%

Challenge: Same lookup for Cc1ccc(C(=O)Nc2nc3ncn(-c4c(C)cccc4Cl)c(=O)c3s2)cc1 , please.
Response given: 450%

###

Test: Tmax in rat at 60 mg/kg, po by LC-MS/MS analysis
Assay type: ADME, organism-based
Settings: in vivo
VALUE TYPE: Tmax (h)
Please state the figure in h; there is no need to write the unit.

Challenge: Fill blank: measured Tmax of the molecule Cc1cccc(Cl)c1-n1cnc2nc(SCc3ccccc3)sc2c1=O is ____.
Response given: 1.3

###

Test: Plasma concentration in C57BL/6J mouse at 1 mg/kg, ip after 2 hrs by LC-MS/MS analysis
Type: ADME, organism-based
VALUE TYPE: concentration at 2 h (ng/mL)
# unit: ng/mL | format: bare number

Challenge: Please give the measured concentration at 2 h for this compound: Cc1cccc(Cl)c1-n1cnc2nc(SCc3ccccc3)sc2c1=O
Response given: 9.8

###

Test: Ratio of drug level in C57BL/6J mouse brain to plasma at 1 mg/kg, ip after 8 hrs by LC-MS/MS analysis
Type: ADME, organism-based
Conditions: read-out: BPR
VALUE TYPE: Kp at 8 h
Keep the answer to the number alone.

Challenge: Sample Cc1cccc(Cl)c1-n1cnc2nc(SCc3ccccc3)sc2c1=O — what was its Kp at 8 h?
Response given: 2.3

###

Experiment: MRT in rat at 3 mg/kg, iv by LC-MS/MS analysis
Format: ADME, organism-based
Conditions: in vivo
VALUE TYPE: MRT (h)
Supply the numeric figure in h, leaving out any unit text.

Challenge: Would you mind telling me what MRT value was observed for Cc1cccc(Cl)c1-n1cnc2nc(SCc3ccccc3)sc2c1=O ?
Response given: 7

###

Assay: MRT in rat at 60 mg/kg, po by LC-MS/MS analysis
Type: ADME, organism-based
Details: in vivo
VALUE TYPE: MRT (h)
Express the result in h but write the number alone.

Challenge: Any idea what MRT was measured for Cc1cccc(Cl)c1-n1cnc2nc(SCc3ccccc3)sc2c1=O ?
Response given: 9.5

###

Test: Apparent clearance in rat at 60 mg/kg, po by LC-MS/MS analysis
Format: ADME, organism-based
Conditions: in vivo
VALUE TYPE: CL/F (mL/min/kg)
Give the value in mL/min/kg but do not write mL/min/kg after it.

Challenge: Which CL/F is listed for Cc1cccc(Cl)c1-n1cnc2nc(SCc3ccccc3)sc2c1=O ?
Response given: 1

###

Test: AUCinfinity in rat at 60 mg/kg, po by LC-MS/MS analysis
Type: ADME, organism-based
Design: dose 60 mg/kg, time infinity, route oral
Conditions: in vivo
VALUE TYPE: AUC(0-inf) (ng·h/mL)
Enter your answer as a number in ng·h/mL; do not include the unit.

Challenge: Give the measured AUC(0-inf) of Cc1cccc(Cl)c1-n1cnc2nc(SCc3ccccc3)sc2c1=O .
Response given: 1100

###

Target: Neuronal acetylcholine receptor subunit alpha-7 (Homo sapiens, UniProt P36544)
Sequence (P36544 whole entry): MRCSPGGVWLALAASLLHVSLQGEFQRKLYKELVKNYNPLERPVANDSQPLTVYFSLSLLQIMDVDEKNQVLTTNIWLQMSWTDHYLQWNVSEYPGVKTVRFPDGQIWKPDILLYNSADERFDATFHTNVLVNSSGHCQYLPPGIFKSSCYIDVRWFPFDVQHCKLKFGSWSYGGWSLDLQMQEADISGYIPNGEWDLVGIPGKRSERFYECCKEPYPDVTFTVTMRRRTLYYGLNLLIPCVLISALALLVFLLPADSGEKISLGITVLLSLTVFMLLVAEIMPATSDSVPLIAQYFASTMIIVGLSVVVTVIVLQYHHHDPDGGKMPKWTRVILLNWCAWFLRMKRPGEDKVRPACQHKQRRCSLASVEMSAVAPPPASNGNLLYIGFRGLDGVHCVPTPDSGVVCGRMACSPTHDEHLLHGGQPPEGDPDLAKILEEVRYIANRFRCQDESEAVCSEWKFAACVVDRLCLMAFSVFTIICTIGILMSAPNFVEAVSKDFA
Assay: Positive allosteric modulation of human alpha7 nAChR expressed in Xenopus laevis oocytes assessed as increase in acetylcholine-induced channel current at -90 mV holding potential preincubated for 2 mins followed by co-application with acetylcholine for 10 secs by two-electrode voltage clamp method
Format: cell-based
pEC50: −log10 of the molar value.
VALUE TYPE: pEC50

{"columns": ["STRUCTURE SMILES STRING", "pEC50"],
 "data": [
  ["Cc1cccc(Cl)c1-n1cnc2nc(SCc3ccc(Cl)cc3)sc2c1=O", 5.92],
  ["Cc1cccc(Cl)c1-n1cnc2nc(SCc3ccc(F)cc3F)sc2c1=O", 5.45]
]}

A. Cc1cccc(Cl)c1-n1cnc2nc(SCc3ccc(F)cc3)sc2c1=O
B. Cc1ccc(Nc2nc3ncn(-c4c(C)cccc4Cl)c(=O)c3s2)cc1
C. Cc1ccc(C(=O)Nc2nc3ncn(-c4c(C)cccc4Cl)c(=O)c3s2)cc1
Challenge: Order the records by pEC50, with each subsequent value no larger than the one before. Present the labels in the sequence the task asks for.
Response given: A, B, C
(A: 5.66, B: 5.07, C: 4.69)

A. Cc1cccc(Cl)c1-n1cnc2nc(SCc3ccccc3F)sc2c1=O
B. Cc1ccc(Nc2nc3ncn(-c4c(C)cccc4Cl)c(=O)c3s2)cc1F
Challenge: Pick one: A or B . Which has the bigger pEC50 number? Reply briefly: the label of your chosen item.
Response given: A

###

Assay: Drug uptake in C57BL/6J mouse brain at 1 mg/kg, ip after 2 hrs by LC-MS/MS analysis
Format: ADME, organism-based
Settings: read-out: Drug uptake
VALUE TYPE: concentration at 2 h (ng/g)
I only need the number, in ng/g, no unit after it.

Challenge: Quick check: concentration at 2 h of Cc1cccc(Cl)c1-n1cnc2nc(SCc3ccccc3)sc2c1=O ?
Response given: 26.3

###

Target: Neuronal acetylcholine receptor subunit alpha-7 (Homo sapiens)
Test: Positive allosteric modulation of human alpha7 nAChR expressed in Xenopus laevis oocytes assessed as increase in acetylcholine-induced channel current at 10 uM at -90 mV holding potential preincubated for 2 mins followed by co-application with acetylcholine for 10 secs by two-electrode voltage clamp method relative to control
Type: cell-based
Activity calls are given as the source filed them. No cut-off for these calls is given here.
VALUE TYPE: %max

Known %max results, listed for orientation:
{"columns": ["STRUCTURE SMILES STRING", "ASSAY TARGET", "%max"],
 "data": [
  ["Cc1cccc(Nc2nc3ncn(-c4c(C)cccc4Cl)c(=O)c3s2)c1", "Neuronal acetylcholine receptor subunit alpha-7 (Homo sapiens)", "1540%"],
  ["Cc1cccc(Cl)c1Nc1ncnc2nc(SCc3ccccc3)sc12", "Neuronal acetylcholine receptor subunit alpha-7 (Homo sapiens)", "33%"],
  ["O=c1c2sc(SCc3ccccc3)nc2ncn1-c1ccc(F)cc1", "Neuronal acetylcholine receptor subunit alpha-7 (Homo sapiens)", "75%"],
  ["COc1ccc(CSc2nc3ncn(-c4c(C)cccc4Cl)c(=O)c3s2)cc1", "Neuronal acetylcholine receptor subunit alpha-7 (Homo sapiens)", "292%"],
  ["Cc1cc(C)cc(Nc2nc3ncn(-c4c(C)cccc4Cl)c(=O)c3s2)c1", "Neuronal acetylcholine receptor subunit alpha-7 (Homo sapiens)", "1100%"],
  ["Cc1cccc(Cl)c1-n1cnc2nc(Nc3cccc(Cl)c3)sc2c1=O", "Neuronal acetylcholine receptor subunit alpha-7 (Homo sapiens)", "300%"],
  ["Cc1cccc(Cl)c1-n1cnc2nc(SCc3ccccc3F)sc2c1=O", "Neuronal acetylcholine receptor subunit alpha-7 (Homo sapiens)", "558%"],
  ["Cc1cccc(Cl)c1-n1cnc2nc(Nc3ccc(Cl)cc3)sc2c1=O", "Neuronal acetylcholine receptor subunit alpha-7 (Homo sapiens)", "200%"],
  ["CCCNc1nc2ncn(-c3c(C)cccc3Cl)c(=O)c2s1", "Neuronal acetylcholine receptor subunit alpha-7 (Homo sapiens)", "inactive"],
  ["Cc1cccc(Cl)c1-n1cnc2nc(SCc3ccc(F)cc3F)sc2c1=O", "Neuronal acetylcholine receptor subunit alpha-7 (Homo sapiens)", "1050%"]
]}

Challenge: State its %max on Neuronal acetylcholine receptor subunit alpha-7 (Homo sapiens): Cc1ccc(Sc2nc3ncn(-c4c(C)cccc4Cl)c(=O)c3s2)cc1
Response given: 226%

Challenge: Queued: Cc1ccc(-c2nc3ncn(-c4c(C)cccc4Cl)c(=O)c3s2)cc1
Response given: 185%

Challenge: Next compound: Cc1ccc(Nc2ccc3ncn(-c4c(C)cccc4Cl)c(=O)c3c2)cc1
Response given: 63%

Challenge: Cc1cc(Cl)cc(Nc2nc3ncn(-c4c(C)cccc4Cl)c(=O)c3s2)c1 ?
Response given: 305%

Challenge: Then what about the compound Cc1ccc(CSc2nc3ncn(-c4c(C)cccc4Cl)c(=O)c3s2)cc1 ?
Response given: 321%
